# Subject Of Test: Estrogen receptor (Homo sapiens)
# Experiment Summary: NVS_NR_hER: NovaScreen (NVS) Nuclear Receptor Binding Assay for human Estrogen Receptor (ER) (AID 2283348)
Records with an inconclusive call do not appear. The source made the active and inactive calls. Rule for the calls: active = hit-call score of the fitted dose curve at least 0.9, where 1 is the maximum; inconclusive = response in the unintended direction; inactive = score below 0.9.
Please reply with one of these outcomes: active, inactive

What did the test return for O=C1CCCN1 ?
inactive

What did the test return for COC(=O)c1sccc1S(=O)(=O)NC(=O)Nc1nc(C)nc(OC)n1 ?
inactive

What did the test return for COP(=S)(OC)Oc1ccc(Sc2ccc(OP(=S)(OC)OC)cc2)cc1 ?
active

What did the test return for CCOC(=O)/C=C(C)/C=C/C[C@@H](C)CCCC(C)C ?
inactive

What did the test return for CC1(C)CCC(Cc2ccc(Cl)cc2)C1(O)Cn1cncn1 (configuration not stated) ?
inactive

What did the test return for C=CC(=O)OCCCCCC(C)C ?
inactive

What did the test return for CCC(C)(C)c1ccc(O)c(C(C)(C)CC)c1 ?
inactive

###

# Experiment Summary: ATG_MRE_CIS: Attagene CIS-FACTORIAL HepG2 Assay for human Metal Responsive Element (MRE) (AID 2282954)
# Experimental Context: HepG2 MRE cis-reporter transcription, Attagene multiplex; actives raise or lower the signal
# Experimental: ATG_CIS is a cell-based, multiplexed-readout assay that uses HepG2, a human liver cell line, with measurements taken at 24 hours after chemical dosing in a 24-well plate.ATG_MRE_CIS is one of 52 assay component(s) measured or calculated from the ATG_CIS assay. […] This assay endpoint, ATG_MRE_CIS, was analyzed with bidirectional fitting relative to DMSO as the negative control and baseline of activity. […]
The source made the active and inactive calls. How the source made its calls: active means hit-call score of the fitted dose curve at least 0.9, where 1 is the maximum; inactive means score below 0.9.
Please reply with one of these outcomes: active, inactive

What did the test return for OCc1ccco1 ?
inactive

What did the test return for CC(=[OH+])/C=C(/C)[O-].CC(=[OH+])/C=C(/C)[O-].CC(=[OH+])/C=C(/C)[O-].[Al] ?
inactive

What did the test return for O=Cc1cccc(Oc2ccccc2)c1 ?
inactive

What did the test return for O=C(CCl)CCl ?
active

What did the test return for CCCCC(CC)CO[N+](=O)[O-] (configuration not stated) ?
inactive

What did the test return for Oc1ccc(-c2ccccc2)cc1 ?
active

What did the test return for O=[N+]([O-])c1ccc(O)c([N+](=O)[O-])c1 ?
inactive

What did the test return for CN(C)N=O ?
inactive

What did the test return for C=CC(=O)N(C)C ?
inactive

What did the test return for CC12CC1(C)C(=O)N(c1cc(Cl)cc(Cl)c1)C2=O (configuration not stated) ?
inactive

What did the test return for COc1cc2c(cc1OC)[C@@]13CCN4CC5=CCO[C@H]6CC(=O)N2[C@H]1[C@H]6[C@H]5C[C@H]43 ?
inactive

What did the test return for CCC(=O)C(CC(C)N(C)C)(c1ccccc1)c1ccccc1 (configuration not stated) ?
inactive

What did the test return for CCc1ccccc1N ?
inactive

What did the test return for O=P(O)(O)CN(CP(=O)(O)O)CP(=O)(O)O ?
inactive

What did the test return for NC(=O)O ?
inactive

What did the test return for C[C@]12CC[C@H](O)CC1=CC[C@@H]1[C@@H]2CC[C@]2(C)C(=O)CC[C@@H]12 ?
inactive

What did the test return for CN(C)P(=O)(N(C)C)N(C)C ?
inactive

What did the test return for CC(Br)C(=O)O (configuration not stated) ?
inactive

What did the test return for CC(C)c1cccc(C(C)C)c1O ?
inactive

What did the test return for COP(=O)(OC)O/C(=C\Cl)c1cc(Cl)c(Cl)cc1Cl ?
active

What did the test return for Nc1ccc(N=Nc2ccc(-c3ccc(N=Nc4c(S(=O)(=O)O)cc5cc(S(=O)(=O)O)c(N=Nc6ccccc6)c(O)c5c4N)cc3)cc2)c(N)c1 ?
inactive

What did the test return for CC(C)OC(=O)Nc1ccccc1 ?
inactive

What did the test return for N#CCc1ccc(Cl)cc1 ?
inactive

What did the test return for CC(C)(c1ccccc1)c1ccc(O)c(C(C)(C)c2ccccc2)c1 ?
active

What did the test return for ClC1=C(Cl)[C@]2(Cl)[C@H]3[C@H]([C@H]4C=C[C@H]3C4)[C@@]1(Cl)C2(Cl)Cl ?
active

What did the test return for C=C(C)C#N ?
inactive

What did the test return for COP(=O)(OC)OC ?
inactive

###

# Experiment Summary: ATG_RORE_CIS: Attagene CIS-FACTORIAL HepG2 Assay for human RAR-related Orphan Receptor Element (RORE) (AID 2282959)
# Experimental Context: HepG2 Attagene cis-factorial RORE reporter, mRNA; actives raise or lower the signal
The source made the active and inactive calls. How the source made its calls: active means hit-call score of the fitted dose curve at least 0.9, where 1 is the maximum; inactive means score below 0.9.
Measure Name: outcome

| Chem Smiles | Measure Name | Recorded Measurement |
| --- | --- | --- |
| Cn1sc(Cl)cc1=O | outcome | inactive |
| Cc1ccc2ccccc2c1C | outcome | inactive |
| COC(=O)Cc1ccccc1 | outcome | inactive |
| C1CCC(NC2CCCCC2)CC1 | outcome | inactive |
| COc1cc2c(cc1OC)[C@@]13CCN4CC5=CCO[C@H]6CC(=O)N2[C@H]1[C@H]6[C@H]5C[C@H]43 | outcome | inactive |

Documented outcome of CCOP(=S)(OCC)SCCS(=O)(=O)CC : inactive

Documented outcome of CCC(C)(C)c1ccc(O)c(C(C)(C)CC)c1 : inactive

Documented outcome of COc1ccc(OC)c(C=O)c1 : inactive

Documented outcome of OCc1ccco1 : inactive

Documented outcome of O=C(O)Cc1ccccc1 : inactive

Documented outcome of O=C(O)C(F)(F)C(F)(F)C(F)(F)C(F)(F)C(F)(F)C(F)(F)F : inactive

Documented outcome of CN(CCCC(=O)c1cccnc1)N=O : inactive

Documented outcome of CCOC(=O)CP(=O)(OCC)OCC : inactive

Documented outcome of CC(C)(c1ccccc1)c1ccc(O)c(C(C)(C)c2ccccc2)c1 : inactive

Documented outcome of CNC : inactive

###

# Subject Of Test: Peroxisome proliferator-activated receptor gamma (Homo sapiens)
# Experiment Summary: OT_PPARg_PPARgSRC1_1440: Odyssey Thera (OT) 24-hour Protein-Complementation Assay for Peroxisome Proliferator-activated Receptor Gamma/ SRC-1 Co-activator (AID 2283388);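 note: nuclear to cytoplasmic ratio of reconstituted Venus YFP fluorescence in fixed imaged cells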
Active and inactive are the calls of the source. How the source made its calls: active means hit-call score of the fitted dose curve at least 0.9, where 1 is the maximum; inconclusive means response in the unintended direction; inactive means score below 0.9.
Please reply with one of these outcomes: true (1) (active), false (0) (inactive)

What did the test return for COC(=O)c1sccc1S(=O)(=O)NC(=O)Nc1nc(C)nc(OC)n1 ?
false (0)

What did the test return for C1CCC(NC2CCCCC2)CC1 ?
false (0)

What did the test return for C=CCc1ccc(OC)cc1 ?
false (0)

What did the test return for O=C(OC1CCCCC1)c1ccccc1C(=O)OC1CCCCC1 ?
false (0)

What did the test return for CCCCCCCCSC(=O)Oc1cc(Cl)nnc1-c1ccccc1 ?
false (0)

What did the test return for CCOP(=S)(OCC)SCSP(=S)(OCC)OCC ?
false (0)

What did the test return for CC(C)OC(=O)Nc1ccccc1 ?
false (0)

What did the test return for CC12CC1(C)C(=O)N(c1cc(Cl)cc(Cl)c1)C2=O (stereo not drawn) ?
false (0)

What did the test return for O=c1[nH]c(=O)[nH]c(=O)[nH]1 ?
false (0)

What did the test return for CC(C)C1CCC(Cc2ccc(Cl)cc2)C1(O)Cn1cncn1 (stereo not drawn) ?
false (0)

What did the test return for Cc1ccc(N)cc1Cl ?
false (0)

What did the test return for O=C(Nc1ccc2[nH]ccc2c1)c1cc2cc(F)ccc2n1Cc1cccc(F)c1 ?
false (0)

What did the test return for CCC[CH2][Sn]([CH2]CCC)([CH2]CCC)[O]C(=O)c1ccccc1 ?
true (1)

###

# Experiment Summary: ATG_AP_2_CIS: Attagene CIS-FACTORIAL HepG2 Assay for human Activator Protein 2 (AP-2) (AID 2282932)
# Experimental Context: HepG2 AP-2 cis-reporter, Attagene transcription factor profiling; actives raise or lower the signal
The source made the active and inactive calls. The calls were made as follows: active = hit-call score of the fitted dose curve at least 0.9, where 1 is the maximum; inactive = score below 0.9.
Please reply with one of these outcomes: active, inactive

What did the test return for COP(=S)(OC)Oc1cc(Cl)c(Cl)cc1Cl ?
inactive

What did the test return for COc1ccc(C=O)cc1OC ?
inactive

What did the test return for COP(=O)(OC)O/C(=C\Cl)c1cc(Cl)c(Cl)cc1Cl ?
active

What did the test return for CCOP(=S)(OCC)SCSP(=S)(OCC)OCC ?
inactive

What did the test return for CC(C)c1ccc(CO)cc1 ?
inactive

What did the test return for C[C@]12CC[C@H](O)CC1=CC[C@@H]1[C@@H]2CC[C@]2(C)C(=O)CC[C@@H]12 ?
inactive

What did the test return for CCSC(C)CC1CC(=O)C(C(CC)=NOC/C=C/Cl)=C(O)C1 (stereo not drawn) ?
inactive

What did the test return for Clc1ccc(C2(Cn3cncn3)CC(Br)CO2)c(Cl)c1 (stereo not drawn) ?
inactive

What did the test return for O=C(O)C(F)(F)C(F)(F)C(F)(F)C(F)(F)C(F)(F)C(F)(F)F ?
inactive

What did the test return for CCN(CC)C(=O)Cl ?
inactive

What did the test return for CC(C)OC(=O)Nc1ccccc1 ?
inactive

What did the test return for Cl/C=C\C[N+]12CN3CN(CN(C3)C1)C2 ?
inactive

What did the test return for O=C1C(Cl)=C(Cl)C(=O)c2ccccc21 ?
inactive

Source of measurements: PubChem BioAssay (EPA / NIEHS)
